Molecular target: Recombinant human LSD1 (Homo sapiens, UniProt O60341)
Experiment: LSD1 inhibition assay (HTRF LSD1 Histone H3K4 mono-demethylation assay, me1->me0)
Type: biochemical
Conditions: 20 nM recombinant human LSD1, 95 nM H3K4(me1) biotinylated peptide, 15 min preincubation, 60 min at 25° C., read-out: LSD1 inhibition IC50 (nM range)
MEASUREMENT_KIND: IC50

Query :: Quickly give me recorded IC50 for N#Cc1ccc(-c2cccc(CN3[C@@H]4CC[C@H]3[C@@H](N)C4)c2-c2cccs2)cc1F (racemic)
Result :: 25 to 100 nM

Query :: Quickly give me recorded IC50 for N#Cc1ccc(-c2cccc(CN3CCC4(CCNC4)C3)c2-c2cnco2)cc1 (centres unmarked)
Result :: 10 to 25 nM

Query :: Quickly give me recorded IC50 for N#Cc1ccc(-c2cc(CN3[C@@H]4CC[C@H]3[C@@H](N)C4)ccc2-c2nccs2)cc1F (racemic)
Result :: 25 to 100 nM

Query :: Quickly give me recorded IC50 for N#Cc1ccc(-c2cc(F)cc(CN3[C@H]4CC[C@@H]3[C@H](N)C4)c2C2CC2)cc1F (single isomer, unassigned)
Result :: 10 to 25 nM

Query :: Quickly give me recorded IC50 for `N#Cc1ccc(-c2cccc(CN3CC4CCC(C3)N4)c2C2CC2)cc1F`
Result :: 10 to 25 nM

Query :: Quickly give me recorded IC50 for CC1(F)CCN(c2ccc(CC3CNCCO3)cc2-c2ccc(C#N)c(F)c2)CC1 (centres unmarked)
Result :: 100 to 1000 nM

Query :: Quickly give me recorded IC50 for `CC(C)N(C)c1ccc(CN2CCN(C)CC2)cc1-c1ccc(C#N)c(F)c1`
Result :: > 1000 nM

Query :: Quickly give me recorded IC50 for `N#Cc1ccc(-c2cc(CN3C[C@]4(N)CC[C@H]3C4)ccc2N2CCC3(CCOC3)CC2)cc1F`
Result :: < 10 nM

Query :: Quickly give me recorded IC50 for N#Cc1ccc(-c2cc(C3CC3)cc(CC3CNCCO3)c2-c2cncs2)cc1F (centres unmarked)
Result :: 10 to 25 nM

Query :: Quickly give me recorded IC50 for `COCC1CCN(c2ccc(CN3C[C@]4(N)CC[C@H]3C4)cc2-c2ccc(C#N)c(F)c2)CC1`
Result :: < 10 nM

Query :: Quickly give me recorded IC50 for `N#Cc1ccc(-c2ccc(F)c(CN3C[C@]4(N)CC[C@H]3C4)c2C2CC2)cc1F`
Result :: 10 to 25 nM

Query :: Quickly give me recorded IC50 for CC1(C)CN(Cc2cccc(-c3ccc(C#N)c(F)c3)c2-c2ccns2)C[C@H]1N (single isomer, unassigned)
Result :: < 10 nM

Query :: Quickly give me recorded IC50 for N#Cc1ccc(-c2cccc(CN3[C@@H]4CC[C@H]3[C@@H](N)C4)c2OC(F)F)cc1F (racemic) [Example 179]
Result :: 10 to 25 nM

Query :: Quickly give me recorded IC50 for N#Cc1ccc(-c2cccc(CN3[C@@H]4CC[C@H]3[C@@H](N)C4)c2-c2ccns2)cc1 (single isomer, unassigned) [Example 204]
Result :: 10 to 25 nM

Query :: Quickly give me recorded IC50 for N#Cc1ccc(-c2cc(CC3CNCCO3)ccc2N2CCC(O)(C(F)(F)F)CC2)cc1F (centres unmarked)
Result :: 100 to 1000 nM

Query :: Quickly give me recorded IC50 for N#Cc1ccc(-c2cccc(CN3[C@H]4CC[C@@H]3[C@H](N)C4)c2C2CC2)cc1F (single isomer, unassigned)
Result :: 10 to 25 nM

Query :: Quickly give me recorded IC50 for N#Cc1ccc(-c2cccc(CC3CNCCO3)c2-c2cnco2)cc1F (centres unmarked)
Result :: 25 to 100 nM
